target: T1, 006 PSMA Fab; experiment: clonal phage ELISA on biotinylated PSMA Fab captured on neutravidin, wells pre-incubated with PSMA antigen as competitor, anti-M13 HRP detection
T1 construct: In the phage ELISA the Fab was biotinylated and captured on neutravidin coated plates; also called Anti-PSMA Fab
Phage binding ELISA signal, Anti-PSMA Fab with PSMA antigen overview
Give the value as a plain number.

>  <BINDER>
EEKMCVPLWMCSGF [Phage-3060]

>  <TEST_VALUE>
0.0787

$$$$
>  <BINDER>
LLAECVAAWMCSGF [Phage-3067]

>  <TEST_VALUE>
0.0712

$$$$

What value of measured Phage binding ELISA signal, Anti-PSMA Fab with PSMA antigen is listed for VQVLCVPSWMCHGF [Phage-3062] ? 0.0688

What value of measured Phage binding ELISA signal, Anti-PSMA Fab with PSMA antigen is listed for VEIQCRPSWMCMGF [Phage-3063] ? 0.0951

What value of measured Phage binding ELISA signal, Anti-PSMA Fab with PSMA antigen is listed for ISPVCIPSWMCLGL [Phage-3069] ? 0.174

What value of measured Phage binding ELISA signal, Anti-PSMA Fab with PSMA antigen is listed for LSHMCRPAWMCEGF [Phage-3068] ? 0.0938
